# assay-info: AUC in ZDF rat at 3 mg/kg, po
# Format: ADME, organism-based
# Parameters: dose 3 mg/kg, route oral
# condition-description: plasma
endpoint-label: AUC (ng·h/mL)
Numbers only, in ng·h/mL.

input: Quick one: AUC of CCc1nc2c(C)cc(CC(C)C)nc2n1[C@H]1CCc2cc(-c3ccccc3-c3nnn[nH]3)ccc21 ?
output: 4400

###

# assay-info: Cmax in SHR rat at 10 mg/kg, po
# Type: ADME, organism-based
# Design: dose 10 mg/kg, route oral
# condition-description: in vivo
endpoint-label: Cmax (ng/mL)
Answers are plain numbers, in ng/mL.

input: Consider the compound shown here: CCc1nc2c(C)cc(CC(C)C)nc2n1[C@H]1CCc2cc(-c3ccccc3-c3nnn[nH]3)ccc21 What is its recorded Cmax?
output: 3070
